# System: Plasmodium falciparum
# assay-procedure: Antimalarial activity against chloroquine-resistant Plasmodium falciparum K1 assessed as incorporation of [3H]hypoxanthine after 48 hr microdilution method
# Format: functional, organism-based
Recorded IC50 values for a group of compounds are listed next.
assay-metric: IC50 (nM)

compound	measured-result
Oc1ccc(Nc2ccnc3cc(Cl)ccc23)cc1CN1CCCC1	12
CCCCN(CCCC)CCC(O)c1cc2c(Cl)cc(Cl)cc2c2cc(C(F)(F)F)ccc12 (stereo not given)	2.8
CCN(CC)CCCC(C)Nc1ccncc1 (stereo not given)	15000
NCc1cc(Nc2ccnc3cc(Cl)ccc23)ccc1O	170
C=C[C@H]1CN2CC[C@H]1C[C@H]2[C@H](O)c1ccnc2ccccc12	91
